- methodNotes: Drug level in Beagle dog liver at 5 mg/kg, sc after 6 months
- Format: ADME, organism-based, Canis lupus familiaris
- Set-up: dose 5 mg/kg, route subcutaneous
- conditionSet: read-out: Drug uptake
outcomeMeasure: concentration at 4383 h (ng/g)
Just the number in ng/g, nothing appended.

Q: // fetch concentration at 4383 h given entry Cc1cc(/C=C/C#N)cc(C)c1Nc1ccnc(Nc2ccc(C#N)cc2)n1 [RILPIVIRINE]
Ans: 31.1

---

- methodNotes: Drug level in Beagle dog lymph node axillar at 5 mg/kg administered intramuscularly after 3 months
- Assay type: ADME, organism-based, Canis lupus familiaris
- Design: dose 5 mg/kg, route intramuscular
- conditionSet: axillary lymph node, im, read-out: Drug uptake
outcomeMeasure: concentration at 2191.5 h
Returns: string containing the number followed by the unit.

Q: Look up and state reported concentration at 2191.5 h for Cc1cc(/C=C/C#N)cc(C)c1Nc1ccnc(Nc2ccc(C#N)cc2)n1
Ans: 25.5 ng/g

---

- methodNotes: Drug level in Beagle dog muscle at non-injected site at 5 mg/kg administered intramuscularly after 3 months
- Type: ADME, organism-based, Canis lupus familiaris, Muscle tissue
- Design: dose 5 mg/kg, route intramuscular
- conditionSet: im, read-out: Drug uptake
outcomeMeasure: concentration at 2191.5 h (ng/g)
# unit: ng/g | format: bare number

Q: Supply concentration at 2191.5 h value. Item: Cc1cc(/C=C/C#N)cc(C)c1Nc1ccnc(Nc2ccc(C#N)cc2)n1
Ans: 84.1

---

- methodNotes: Ratio of drug level in thymus to plasma in male Beagle dog at 200 mg/kg, sc after 3 months
- Type: ADME, organism-based, Canis lupus familiaris
- Design: dose 200 mg/kg, route subcutaneous
outcomeMeasure: Kp at 2191.5 h
The answer should be a number; do not append a unit.

Q: Kindly indicate its recorded Kp at 2191.5 h. Item: Cc1cc(/C=C/C#N)cc(C)c1Nc1ccnc(Nc2ccc(C#N)cc2)n1 [RILPIVIRINE]
Ans: 5.9

---

- methodNotes: Drug level in Beagle dog lymph node iliac at 5 mg/kg, sc after 3 months
- Format: ADME, organism-based, Canis lupus familiaris
- Design: dose 5 mg/kg, route subcutaneous
- conditionSet: read-out: Drug uptake
outcomeMeasure: concentration at 2191.5 h (ng/g)
Give just the number in ng/g; leave the unit off.

Q: Specify reported concentration at 2191.5 h for the molecule shown: Cc1cc(/C=C/C#N)cc(C)c1Nc1ccnc(Nc2ccc(C#N)cc2)n1
Ans: 16.9

---

- methodNotes: Drug level in Beagle dog thymus at 5 mg/kg, sc after 3 months
- Type: ADME, organism-based, Canis lupus familiaris
- Design: dose 5 mg/kg, route subcutaneous
- conditionSet: read-out: Drug uptake
outcomeMeasure: concentration at 2191.5 h (ng/g)
State the answer as a number, implicitly in ng/g.

Q: Please supply the value of reported concentration at 2191.5 h for the item Cc1cc(/C=C/C#N)cc(C)c1Nc1ccnc(Nc2ccc(C#N)cc2)n1
Ans: 43.6

---

- methodNotes: Drug level in Beagle dog muscle at injected site at 5 mg/kg administered intramuscularly after 3 months
- Format: ADME, organism-based, Canis lupus familiaris, Muscle tissue
- Design: dose 5 mg/kg, route intramuscular
- conditionSet: im, read-out: Drug uptake
outcomeMeasure: concentration at 2191.5 h (ng/g)
Only the number, expressed in ng/g, is required.

Q: Item Cc1cc(/C=C/C#N)cc(C)c1Nc1ccnc(Nc2ccc(C#N)cc2)n1 : provide concentration at 2191.5 h
Ans: 142000
